Assay: NCI Yeast Anticancer Drug Screen. Data for the rad50 strain (AID 155);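 note: 0% = growth of vehicle-only cultures of the same strain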
Conditions: S. cerevisiae rad50 strain growth inhibition; at 50.0 µM (retest, dose inferred, filed as 5.0)
About 79,000 compounds went through this panel and 15% of them were active in at least one assay; those are over-represented in the sample as a whole. Calls of active or inactive are those of the source. Cut-off read from the data, not from the text of the source: active = growth inhibition above about 70%; inactive = the rest.
Outcome codes: active, inactive

{"columns": ["Compound", "Label Class"],
 "data": [
  ["COC(=O)CS(=O)(=O)CCS(=O)(=O)CC(=O)OC", "inactive"],
  ["Cc1ccc(-n2c(CSc3ccc(Cl)cc3)nnc2SCc2nc3ccccc3[nH]2)cc1", "inactive"],
  ["O=C(C=P(c1ccccc1)(c1ccccc1)c1ccccc1)c1ccccc1-c1ccccc1C(=O)C=P(c1ccccc1)(c1ccccc1)c1ccccc1", "active"],
  ["O=C(O)C(S(=O)(=O)O)S(=O)(=O)O", "active"],
  ["C/C(=N\\NC(=S)Nc1ccc(C(=O)O)cc1C)c1ccc2ccccc2n1", "inactive"],
  ["CC(=O)Nc1nc(Cl)c2ncn(C3CC(OC(=O)c4ccc(C)cc4)C(COC(=O)c4ccc(C)cc4)O3)c2n1 (stereo not given)", "inactive"],
  ["O=C(O)/C(Cl)=C(/Cl)C(=O)Nc1cccc(Cl)c1", "active"],
  ["CCN1C2=NCCN2S(=O)(=O)c2ccccc21", "inactive"],
  ["COc1cc2c(c(C3C(=O)N(C)c4ccc(Br)cc43)c1OC)OCO2 (stereo not given)", "inactive"],
  ["O=C1C=CC(=O)N1c1ccccc1 (tested in a mixture with another compound)", "inactive"]
]}

###

Test: NCI Yeast Anticancer Drug Screen. Data for the rad50 strain (AID 155);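 note: 0% = growth of vehicle-only cultures of the same strain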
Conditions: S. cerevisiae rad50 strain growth inhibition; at 5.0 µM (retest, dose inferred, filed as 0.5); hits give high values
About 79,000 compounds went through this panel and 15% of them were active in at least one assay; those are over-represented in the sample as a whole.

{"columns": ["Molecule", "growth inhibition, %"],
 "data": [
  ["O=[N+]([O-])C12CCCCC1([N+](=O)[O-])CCCC2 (stereo not drawn)", -1],
  ["CC(CN(C)C)C(=O)/C=C/c1ccc(C(C)C)cc1 (stereo not drawn)", 3],
  ["Clc1ccc(C2SCc3nc4ccccc4n32)c(Cl)c1 (stereo not drawn)", -7],
  ["OC(C/C(CNNc1ccccc1)=N/Nc1ccccc1)(C(F)(F)F)C(F)(F)F", 6],
  ["Cc1cc2c(c([N+](=O)[O-])c1C)C(=O)C(Br)=C(N)C2=O", 95],
  ["Cc1ccc(NC(=O)CCC(=O)CC(=O)C(C)(C)C)cc1C", 16],
  ["Nc1cc2[nH]c(=O)c3cc(Cl)ccc3c2cc1Cl", 83],
  ["C[n+]1c(/C=C\\c2ccccc2)sc2ccccc21", 23],
  ["CCOC(=O)N/N=C/c1ccc(N(C)CCC#N)cc1", 7],
  ["CN(CN(C)N=Nc1ccc(Cl)cc1)CN(C)N=Nc1ccc(Cl)cc1", -14],
  ["CC(C)/C(Cl)=N\\OC(=O)Nc1cccc(F)c1", 14],
  ["COc1cc(O)c2c(c1)C(=O)c1cc3c(c(O)c1C2=O)C(OC1OC(C)C(O)C(O)C1OC)C(OC)C(C)(O)C3=O (stereo not drawn)", 95],
  ["COC(=O)c1ccc2ccccc2c1C(=O)c1ccc(F)cc1", -1],
  ["CC(C)NCC=C=Nc1ccccc1", -11],
  ["COc1ccc(NC(=S)N/N=C/c2cccc(C)n2)cc1", 8],
  ["CN(C)C1C=CCC(c2ccccc2)C1[N+](=O)[O-] (stereo not drawn)", 1],
  ["CCOc1ccc2nc3cc(Cl)ccc3[n+](C)c2c1", 20],
  ["COc1ccc2c(c1)C=C([N+](=O)[O-])C(C1OC(C)(C)OC1C1COC(C)(C)O1)O2 (stereo not drawn)", 17],
  ["NC1OC(COC(=O)c2ccccc2)C(O)C(OC(=O)c2ccccc2)C1OC(=O)c1ccccc1 (stereo not drawn)", 0],
  ["C1=C([P+](c2ccccc2)(c2ccccc2)c2ccccc2)CCCC1", 22],
  ["O=[N+]([O-])c1c(Br)ncn1Cc1ccccc1", 26],
  ["CCOC(=O)C1=C(c2ccccc2)N(C)c2ccccc2S1", 4],
  ["S=P([S][Sn]([S]P(=S)(c1ccccc1)c1ccccc1)([c]1ccccc1)[c]1ccccc1)(c1ccccc1)c1ccccc1", 22]
]}

Reference for the values: PubChem BioAssay (NCI)
